run.description: Test 4: concentration of the test compounds in plasma
Type: in vivo
condition.set: mouse, po, 25 mg/kg, 25 mg/kg po, 6 hr, animal 1, read-out: Concentration in plasma, animal 1
outcome.measure: concentration at 6 hr
Give your result as the value with the unit written after it.

Memo: CN1CCN(C(=O)c2c(C(F)(F)F)oc3c2C(=O)c2ccccc2C3=O)CC1 , reported concentration at 6 hr: 351 ng/mL

* * *

run.description: Test 4: concentration of the test compounds in plasma
Format: in vivo
condition.set: mouse, po, 25 mg/kg, 25 mg/kg po, 6 hr, mean of 3, read-out: Concentration in plasma, mean
outcome.measure: concentration at 6 hr (ng/mL)
Answers are plain numbers, in ng/mL.

For CN1CCN(C(=O)c2c(C(F)(F)F)oc3c2C(=O)c2ccccc2C3=O)CC1 the compound record lists concentration at 6 hr as 1160

* * *

run.description: Test 3: solubility test
Type: physicochemical
condition.set: simulated gastric fluid, kinetic from dmso stock; pH 1.2 buffer, 1% DMSO, HPLC; read-out: Solubility pH 1.2
Structures can show the parent of a compound that is named as a salt.
Kindly supply the reported log10 solubility values for the records listed here.
Record value = log10 of solubility given in µg/mL.

Reference set (4 entries):
{"compound": "CC(=O)c1oc2c(c1C(=O)N1CCOCC1)C(=O)c1ccccc1C2=O", "numeric.value": 2.12}
{"compound": "CN(C)C(=O)c1c(C(F)(F)F)oc2c1C(=O)c1ccccc1C2=O", "numeric.value": 1.80}
{"compound": "CC(=O)c1oc2c(c1C(=O)N(C)C)C(=O)c1ccccc1C2=O", "numeric.value": 2.06}
{"compound": "CN1CCN(C(=O)c2c(C(F)(F)F)oc3c2C(=O)c2ccccc2C3=O)CC1", "numeric.value": 2.20}

Count: 2. Required value per item: log10 solubility.
1. CC(=O)c1oc2c(c1C(=O)N1CCN(C)CC1)C(=O)c1ccccc1C2=O [Example 5, hydrochloride]
2. COC(=O)c1c(C(C)=O)oc2c1C(=O)c1ccccc1C2=O

Result:
2.18
-0.10

* * *

run.description: Test 5: concentration of the test compounds in tumor
Assay type: in vivo
condition.set: mouse, po, 25 mg/kg, 25 mg/kg po, 6 hr, animal 1, read-out: Concentration in tumor, animal 1
outcome.measure: concentration at 6 hr (ng/mL)
Give bare numbers, in ng/mL.

Recorded result, CN1CCN(C(=O)c2c(C(F)(F)F)oc3c2C(=O)c2ccccc2C3=O)CC1 , concentration at 6 hr: 329
